Test system: HepG2
Assay: cytotoxicity call (relative viability < 0.9)
Details: 10 µM
Out of some 39,000 compounds screened, about 3,300 (8.5%) were called active. The full list was thinned out, with actives kept by preference.
The reply should be one of these categories: active, inactive

A selection of reference data follows.
| Compound structure | Tested system | Class name |
| --- | --- | --- |
| Cc1noc(C)c1S(=O)(=O)Nc1cccc2c1O[C@H](CN(C)Cc1ccc(C(=O)O)cc1)[C@@H](C)CN([C@H](C)CO)C2=O | HepG2 | inactive |
| Cc1noc(C)c1S(=O)(=O)Nc1cccc2c1O[C@H](CN(C)S(C)(=O)=O)[C@H](C)CN([C@@H](C)CO)C2=O | HepG2 | inactive |
| C[C@H](CO)N1C[C@H](C)[C@H](CN(C)Cc2ccc(Oc3ccccc3)cc2)Oc2c(NC(=O)Nc3ccc4c(c3)OCO4)cccc2C1=O | HepG2 | active |

INPUT: What did this assay record as the result for C[C@H]1CN([C@@H](C)CO)C(=O)c2cccc(NC(=O)Nc3ccc4c(c3)OCO4)c2O[C@H]1CN(C)Cc1ccc(-c2ccccc2)cc1 ?
OUTPUT: inactive
